Reference source for all entries: PubChem BioAssay (NCI)

test system: CAKI-1 renal; assay: NCI-60 one-dose screen, 48 h (100 = growth as untreated, 0 = no growth, -100 = all killed); details: 10 µM unless noted
Compounds without any hit were thinned out: in the full panel of roughly 83,000, 20% have a hit. Activity calls are given as the source filed them. How the source made its calls: active means growth percent below 10; inactive means the rest.
readout: growth

compound	growth
CCC[CH2][Sn]1([CH2]CCC)[O]C2C(CO)OC(n3ccc(N)nc3=O)C2[O]1 (stereo unspecified)	-82.7% (active)
COC1CC(C)C(OC)c2cc(O)cc(c2O)NC(=O)/C(C)=C/C=C\C(C)C(OC(N)=O)/C(C)=C\C(C)C1OC (stereo unspecified)	54.2% (inactive)
CCCCCCCCCCCC[S+](C)CC(=O)[O-] (stereo unspecified)	38.7% (inactive)
O=C(/C=C/C(Cl)(Cl)Cl)Nc1ccc(Cl)cc1	101% (inactive)
O=C1C=CC(=O)N1C1CCCCCCCCCCC1	43.5% (inactive)
O=C(/C=C/c1ccccc1)c1ccccc1O	75.2% (inactive)

Write growth of "O=C/C=C/c1ccc([N+](=O)[O-])cc1" ; system used: CAKI-1 renal
100% (inactive)

Quote CAKI-1 renal growth for entry "COc1ccc2c(c1)c(CC(=O)O)c(C)n2C(=O)c1ccc(Cl)cc1" .
88.1% (inactive)
